experiment: Toxicity in Artemia salina; format: organism-based; conditions: in vivo, read-out: LD50 (the source's name)
readout.label: LC50 (µM)
Your answer should be a plain number; it is taken to be in µM.

Query string: Field request: LC50 | item: COc1cc2c3c(c1O)C1(C=C(Br)C(O)C(Br)=C1)C[C@@H]3N(C)CC2 (some centres not stated)
Result string: 10.9

Query string: Moving on to the next compound: `COc1cc2c3c(c1O)C1(C=C(Br)C(=O)C(Br)=C1)C[C@@H]3N(C)CC2`
Result string: 4.4
